biological target: GST-WRKY1(266-371) (Arabidopsis thaliana, UniProt Q9SI37 266-371); experiment: universal protein binding microarray (PBM); high values mean tight binding; details: protein: recombinant; tags: GST; dsDNA, one strand shown
Sequence (Q9SI37 266-371): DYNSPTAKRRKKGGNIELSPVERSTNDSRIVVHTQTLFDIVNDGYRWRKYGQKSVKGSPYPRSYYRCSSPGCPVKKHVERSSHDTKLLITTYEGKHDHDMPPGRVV
MEASURE: binding signal (E-score)
Report the value in E-score with no unit label.

Solved entries:
RESIDUE_SEQUENCE: TACGTCAA
TESTED_SYSTEM: GST-WRKY1(266-371) (Arabidopsis thaliana, UniProt Q9SI37 266-371)
binding signal [E-score]: 0.402

RESIDUE_SEQUENCE: CGTGGACC
TESTED_SYSTEM: GST-WRKY1(266-371) (Arabidopsis thaliana, UniProt Q9SI37 266-371)
binding signal [E-score]: 0.444

RESIDUE_SEQUENCE: AATAGCGT
TESTED_SYSTEM: GST-WRKY1(266-371) (Arabidopsis thaliana, UniProt Q9SI37 266-371)
binding signal [E-score]: 0.0558

RESIDUE_SEQUENCE: CTTCCTTA
TESTED_SYSTEM: GST-WRKY1(266-371) (Arabidopsis thaliana, UniProt Q9SI37 266-371)
binding signal [E-score]: 0.0845

RESIDUE_SEQUENCE: CTTAAGGA
TESTED_SYSTEM: GST-WRKY1(266-371) (Arabidopsis thaliana, UniProt Q9SI37 266-371)
binding signal [E-score]: 0.07

In: Which binding signal reading was recorded for the sequence `GCTTTGAC` ?
Out: 0.466

In: State the recorded binding signal for this entry: `AATAGTCA`
Out: 0.413

In: Bench note: what binding signal did `CAGTCAAC` show?
Out: 0.491

----------
Target: GST-ANAC092(1-285) full length (Arabidopsis thaliana, UniProt Q9FKA0 1-285)
Sequence: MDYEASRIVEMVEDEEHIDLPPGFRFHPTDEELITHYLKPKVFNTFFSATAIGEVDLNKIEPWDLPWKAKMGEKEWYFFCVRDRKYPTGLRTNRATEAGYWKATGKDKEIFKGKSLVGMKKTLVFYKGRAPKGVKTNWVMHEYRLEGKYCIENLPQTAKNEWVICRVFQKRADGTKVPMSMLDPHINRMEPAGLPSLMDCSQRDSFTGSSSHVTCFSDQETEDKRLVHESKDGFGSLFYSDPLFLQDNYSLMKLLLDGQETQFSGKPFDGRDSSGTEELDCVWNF
Assay: universal protein binding microarray (PBM); high values mean tight binding
Conditions: protein: recombinant; tags: GST; chain copies: 2; dsDNA, one strand shown
MEASURE: binding signal (E-score)
Give just the numeric value; E-score need not be written.

Use these answered entries as a reference point.
RESIDUE_SEQUENCE: AGGGTAAC
TESTED_SYSTEM: GST-ANAC092(1-285) full length (Arabidopsis thaliana, UniProt Q9FKA0 1-285)
UNITS: E-score
MEASURED_RESULT: 0.0751
--
RESIDUE_SEQUENCE: CTACGTCA
TESTED_SYSTEM: GST-ANAC092(1-285) full length (Arabidopsis thaliana, UniProt Q9FKA0 1-285)
UNITS: E-score
MEASURED_RESULT: 0.318
--
RESIDUE_SEQUENCE: CCTTACCC
TESTED_SYSTEM: GST-ANAC092(1-285) full length (Arabidopsis thaliana, UniProt Q9FKA0 1-285)
UNITS: E-score
MEASURED_RESULT: 0.0872
--
RESIDUE_SEQUENCE: GTGCCGTA
TESTED_SYSTEM: GST-ANAC092(1-285) full length (Arabidopsis thaliana, UniProt Q9FKA0 1-285)
UNITS: E-score
MEASURED_RESULT: 0.449
--
RESIDUE_SEQUENCE: CACGCTAC
TESTED_SYSTEM: GST-ANAC092(1-285) full length (Arabidopsis thaliana, UniProt Q9FKA0 1-285)
UNITS: E-score
MEASURED_RESULT: 0.476
--
RESIDUE_SEQUENCE: GTTACGCA
TESTED_SYSTEM: GST-ANAC092(1-285) full length (Arabidopsis thaliana, UniProt Q9FKA0 1-285)
UNITS: E-score
MEASURED_RESULT: 0.363

In: Sample `GTACGCAA` — what was its binding signal?
Out: 0.487

In: Value lookup for binding signal; key = `AACACGTC`
Out: 0.428

In: For the sequence shown here, `AAACGTAA` , give the reported binding signal.
Out: 0.378

In: Report binding signal for `GGGGAAAC` please.
Out: 0.217

In: Would you kindly share the measured binding signal for `GTTAAGGA` ?
Out: 0.0916

----------
Target: GST-SND1(1-203) (Arabidopsis thaliana, UniProt Q9LPI7 1-203)
Sequence: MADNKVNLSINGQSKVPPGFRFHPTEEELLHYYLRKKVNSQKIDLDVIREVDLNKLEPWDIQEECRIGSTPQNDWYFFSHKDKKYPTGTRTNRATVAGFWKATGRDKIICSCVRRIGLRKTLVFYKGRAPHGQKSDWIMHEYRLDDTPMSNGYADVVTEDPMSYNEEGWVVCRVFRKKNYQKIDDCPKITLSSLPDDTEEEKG
Experiment: universal protein binding microarray (PBM); high values mean tight binding
Conditions: protein: recombinant; tags: GST; chain copies: 2; dsDNA, one strand shown
Binary classification by binding signal, with 0.2 E-score as an inclusive lower bound for Condition met; all other cases are Condition not met.

Example results:
RESIDUE_SEQUENCE: GTTAAGCA
TESTED_SYSTEM: GST-SND1(1-203) (Arabidopsis thaliana, UniProt Q9LPI7 1-203)
CLASS_ASSIGNMENT: Condition met
--
RESIDUE_SEQUENCE: GTACGCCA
TESTED_SYSTEM: GST-SND1(1-203) (Arabidopsis thaliana, UniProt Q9LPI7 1-203)
CLASS_ASSIGNMENT: Condition met
--
RESIDUE_SEQUENCE: ACACGATA
TESTED_SYSTEM: GST-SND1(1-203) (Arabidopsis thaliana, UniProt Q9LPI7 1-203)
CLASS_ASSIGNMENT: Condition met
--
RESIDUE_SEQUENCE: AGTCTACG
TESTED_SYSTEM: GST-SND1(1-203) (Arabidopsis thaliana, UniProt Q9LPI7 1-203)
CLASS_ASSIGNMENT: Condition not met

In: Threshold query (binding signal >= 0.2 E-score) on `CGTACACG`
Out: Condition not met

In: Quick check, binding signal >= 0.2 E-score? `CTTTCTTC`
Out: Condition not met

In: hey, is binding signal for this one >= 0.2 E-score? `AAGGAATC`
Out: Condition met

In: Determine whether this sequence has binding signal no lower than 0.2 E-score: `CACGCCAG`
Out: Condition not met

In: Decide: binding signal of `AAGCAACC` >= 0.2 E-score?
Out: Condition met

In: Is binding signal at least 0.2 E-score? Consider `GTTTCTTA`
Out: Condition met

In: Could you please find out whether `AGTTACGC` has binding signal that meets 0.2 E-score or exceeds it?
Out: Condition met

In: State whether the measured binding signal reaches 0.2 E-score, counting equality as reaching it, for `AACGTAAT`
Out: Condition met

In: Does binding signal meet or surpass 0.2 E-score for `ATTTCCTC` ?
Out: Condition not met

In: I'd appreciate it if you could say whether `ACACGTTA` has binding signal at least equal to 0.2 E-score.
Out: Condition met

In: Tell me whether binding signal is at least 0.2 E-score here: `TGACTCAA`
Out: Condition not met

----------
Biological target: GST-ANAC092(1-176) (Arabidopsis thaliana, UniProt Q9FKA0 1-176)
Sequence: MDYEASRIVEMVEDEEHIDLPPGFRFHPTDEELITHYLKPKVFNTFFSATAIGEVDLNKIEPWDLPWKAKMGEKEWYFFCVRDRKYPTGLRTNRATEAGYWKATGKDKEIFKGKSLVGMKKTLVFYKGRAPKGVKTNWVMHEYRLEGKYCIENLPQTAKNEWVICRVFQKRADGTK
Experiment: universal protein binding microarray (PBM); transcription factors of Arabidopsis thaliana; high values mean tight binding
Conditions: protein: recombinant; tags: GST; chain copies: 2; dsDNA, one strand shown
Would you please tag the item TRUE when its binding signal is 0.4 E-score or above, and FALSE when it is below?

Record excerpt, results attached:
RESIDUE_SEQUENCE: TCGGTCAA
TESTED_SYSTEM: GST-ANAC092(1-176) (Arabidopsis thaliana, UniProt Q9FKA0 1-176)
CLASS_ASSIGNMENT: FALSE
//
RESIDUE_SEQUENCE: ACGTGTAC
TESTED_SYSTEM: GST-ANAC092(1-176) (Arabidopsis thaliana, UniProt Q9FKA0 1-176)
CLASS_ASSIGNMENT: FALSE
//
RESIDUE_SEQUENCE: TCACGTAA
TESTED_SYSTEM: GST-ANAC092(1-176) (Arabidopsis thaliana, UniProt Q9FKA0 1-176)
CLASS_ASSIGNMENT: TRUE
//
RESIDUE_SEQUENCE: TACGTAAA
TESTED_SYSTEM: GST-ANAC092(1-176) (Arabidopsis thaliana, UniProt Q9FKA0 1-176)
CLASS_ASSIGNMENT: TRUE

In: Identify whether the reported binding signal of the following sequence is 0.4 E-score or greater: `GCACGGCA`
Out: TRUE

In: I'd appreciate it if you could say whether `GAGACGTA` has binding signal at least equal to 0.4 E-score.
Out: FALSE

In: Decide: binding signal of `ATACGTTA` >= 0.4 E-score?
Out: TRUE

In: Assess whether reported binding signal for `TGCCGTAA` sits at 0.4 E-score or higher.
Out: TRUE

In: Would you say `GTGAAGAA` shows binding signal at minimum 0.4 E-score?
Out: FALSE

In: Entry `GATACGTA` : is its binding signal no less than 0.4 E-score?
Out: FALSE

In: Does the sequence `AATTACGT` have recorded binding signal that is 0.4 E-score or more?
Out: TRUE
